// provenance: ChEMBL document CHEMBL4229332

protocolText: Drug level in Wistar rat brain at 3 mg/kg, ip measured after 60 mins by LC-MS/MS analysis
Format: ADME, organism-based
conditionLabel: read-out: Drug uptake
Tag: 1 (yes) if measured concentration at 1 h is not below 0.05 µM, 0 (no) if it is.

Does concentration at 1 h meet or surpass 0.05 µM for `O=S(=O)(c1cncc2ccccc12)N1CCC[C@@H]1CCN1CCN(c2cccc3sccc23)CC1` ?
1 (yes)

Does concentration at 1 h meet or surpass 0.05 µM for `O=S(=O)(c1cccc2cnccc12)N1CCC[C@H]1CCN1CCN(c2nsc3ccccc23)CC1` ?
0 (no)

Does concentration at 1 h meet or surpass 0.05 µM for `O=S(=O)(c1cccc2cnccc12)N1CCC[C@@H]1CCN1CCN(c2nsc3ccccc23)CC1` ?
0 (no)

Does concentration at 1 h meet or surpass 0.05 µM for `O=S(=O)(c1cncc2ccccc12)N1CCC[C@H]1CCN1CCN(c2cccc3sccc23)CC1` ?
1 (yes)

Does concentration at 1 h meet or surpass 0.05 µM for `O=S(=O)(c1cncc2ccccc12)N1CCC[C@@H]1CCN1CCN(c2nsc3ccccc23)CC1` ?
1 (yes)
